- System: T. brucei bloodstream forms
- Experiment summary: microbe, parasite or virus in culture
- Protocol conditions: Trypanosoma brucei, read-out: Mean EC50 ± SD, Plus cation, plus CaCl2 (3 mM)
Endpoint: EC50 (nM)
Numbers only, in nM.

>>> df
                                   molecule  endpoint  experimental_result
0  COc1ccccc1-c1nc(-c2nc(C)n[nH]2)c(O)c2ncccc12      EC50                 1300
1  Cc1nnc(-c2nc(NCc3ccc(Cl)cc3)c3cccnc3c2O)[nH]1      EC50                  400

Please fill in: EC50 reported for CC(NC(=O)c1ncc2cccnc2c1O)c1ccc(F)cc1 (stereo not drawn) = 700

###

- Test system: T. brucei bloodstream forms
- Experiment summary: microbe, parasite or virus in culture
- Protocol conditions: T. brucei
- Method: The clonal Leishmania donovani cell line LdBOB (derived from MHOM/SD/62/1S-CL2D) was grown as promastigotes at 28°C, as described previously ([53]). Bloodstream-form T. brucei MiTat 1.2 clone 221a and its derived subline, 2T1, were cultured at 37°C in the presence of 5% CO2 in HMI9-T medium, as described previously ([54]). […] In the first instance, the maximum tolerated concentrations of ZnCl2, CaCl2, CuCl2, MgCl2, MnCl2, and FeCl2 were determined for each cell type. […]
Endpoint: Maximum concentration of metal salt having a minimal impact on cell growth (µM)
Give bare numbers, in µM.

>>> print(df.to_string())
      chemical_string  experimental_result
0        [Cl][Mn][Cl]                   10
1  [Cl-].[Cl-].[Mg+2]                 1000
2  [Ca+2].[Cl-].[Cl-]                 3000

For the next question, use this molecule.
Please fill in: Maximum concentration of metal salt having a minimal impact on cell growth reported for [Cl][Cu][Cl] = 5

###

- Test system: T. brucei bloodstream forms
- Experiment summary: microbe, parasite or virus in culture
- Protocol conditions: Trypanosoma brucei, read-out: EC50, wild-type [WT] trypanosomes
Endpoint: EC50 (nM)
Answers are plain numbers, in nM.

Please fill in: EC50 reported for Cc1nnc(-c2nc(NCc3ccc(Cl)cc3)c3cccnc3c2O)[nH]1 = 850

###

- Tested on: T. brucei bloodstream forms
- Experiment summary: microbe, parasite or virus in culture
- Protocol conditions: Trypanosoma brucei, read-out: Mean EC50 ± SD, WT, absence of cation, ZnCl2 experiment
- Protocol: The clonal Leishmania donovani cell line LdBOB (derived from MHOM/SD/62/1S-CL2D) was grown as promastigotes at 28°C, as described previously ([53]). Bloodstream-form T. brucei MiTat 1.2 clone 221a and its derived subline, 2T1, were cultured at 37°C in the presence of 5% CO2 in HMI9-T medium, as described previously ([54]). […] In the first instance, the maximum tolerated concentrations of ZnCl2, CaCl2, CuCl2, MgCl2, MnCl2, and FeCl2 were determined for each cell type. […]
Endpoint: pEC50
Numbers only, as −log10 of the molar value.

Hey, quick one: what's pEC50 for each of these?
1. Cc1nnc(-c2nc(NCc3ccc(Cl)cc3)c3cccnc3c2O)[nH]1
2. COc1ccccc1-c1nc(-c2nc(C)n[nH]2)c(O)c2ncccc12
3. CC(NC(=O)c1ncc2cccnc2c1O)c1ccc(F)cc1 (stereo not drawn)

Resp:
6.44
6.10
6.30
